# Measurement Target: T1, human GM-CSFRα, full length on cells (human, UniProt P15509 23-400)
# T1 sequence: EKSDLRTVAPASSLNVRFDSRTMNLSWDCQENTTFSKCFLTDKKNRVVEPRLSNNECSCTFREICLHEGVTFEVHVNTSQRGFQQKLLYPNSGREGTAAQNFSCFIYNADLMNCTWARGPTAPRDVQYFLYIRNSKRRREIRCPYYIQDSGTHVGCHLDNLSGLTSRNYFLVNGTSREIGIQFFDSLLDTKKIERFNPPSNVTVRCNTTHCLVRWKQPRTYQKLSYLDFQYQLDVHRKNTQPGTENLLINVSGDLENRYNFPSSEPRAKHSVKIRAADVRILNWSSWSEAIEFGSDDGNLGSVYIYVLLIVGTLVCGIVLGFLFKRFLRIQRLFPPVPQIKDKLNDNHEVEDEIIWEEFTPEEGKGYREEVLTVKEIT
# Protocol Summary: cell-based or functional assay
Task for the reader: assign each of the following binders its reported IC50, TF-1 cell proliferation.
Please respond with the number in µg/mL and leave the unit unwritten.

Prompt: Endpoint output: IC50, TF-1 cell proliferation of E35-scFv LN93D (scFv, V domains shown) VH: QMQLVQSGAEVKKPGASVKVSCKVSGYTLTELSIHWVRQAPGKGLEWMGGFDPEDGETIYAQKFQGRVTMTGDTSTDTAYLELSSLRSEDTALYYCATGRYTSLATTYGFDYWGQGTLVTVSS VL: EIVMTQSPATLSLSPGERATLSCRASQSVSSYLAWYQQKPGQAPRLLIYGASSRATGIPDRFSGSGSGTDFTLTISRLEPEDFAVYYCQQYDDWPYTFGQGTKLEIK . Value?
Response: 0.045

Prompt: Which measured IC50, TF-1 cell proliferation value corresponds to E35-scFv LS30K (scFv, V domains shown) VH: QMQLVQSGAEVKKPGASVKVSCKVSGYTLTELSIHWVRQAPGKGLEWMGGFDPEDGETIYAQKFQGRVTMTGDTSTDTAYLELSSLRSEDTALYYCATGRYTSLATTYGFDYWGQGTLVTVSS VL: EIVMTQSPATLSLSPGERATLSCRASQSVKSYLAWYQQKPGQAPRLLIYGASSRATGIPDRFSGSGSGTDFTLTISRLEPEDFAVYYCQQYDNWPYTFGQGTKLEIK ?
Response: 0.083

Prompt: Given the binder E35-scFv HE31G (scFv, V domains shown) VH: QMQLVQSGAEVKKPGASVKVSCKVSGYTLTGLSIHWVRQAPGKGLEWMGGFDPEDGETIYAQKFQGRVTMTGDTSTDTAYLELSSLRSEDTALYYCATGRYTSLATTYGFDYWGQGTLVTVSS VL: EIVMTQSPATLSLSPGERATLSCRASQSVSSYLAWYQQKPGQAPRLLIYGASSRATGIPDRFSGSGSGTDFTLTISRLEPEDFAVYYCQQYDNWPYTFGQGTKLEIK , what is its reported IC50, TF-1 cell proliferation?
Response: 0.116

Prompt: Given the binder E35-scFv (scFv, V domains shown) VH: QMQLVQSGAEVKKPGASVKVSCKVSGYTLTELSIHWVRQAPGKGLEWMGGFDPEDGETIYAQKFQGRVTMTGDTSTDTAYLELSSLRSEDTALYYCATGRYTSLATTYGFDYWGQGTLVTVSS VL: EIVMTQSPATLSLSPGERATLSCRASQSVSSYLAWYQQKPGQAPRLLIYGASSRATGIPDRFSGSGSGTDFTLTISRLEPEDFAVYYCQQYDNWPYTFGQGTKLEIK , what is its reported IC50, TF-1 cell proliferation?
Response: 0.12

Prompt: If you can, please state the reported IC50, TF-1 cell proliferation value of E35-scFv LS26H (scFv, V domains shown) VH: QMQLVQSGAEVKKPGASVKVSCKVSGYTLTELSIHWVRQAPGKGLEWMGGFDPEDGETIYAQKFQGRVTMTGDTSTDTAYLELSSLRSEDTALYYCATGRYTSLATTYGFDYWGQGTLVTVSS VL: EIVMTQSPATLSLSPGERATLSCRAHQSVSSYLAWYQQKPGQAPRLLIYGASSRATGIPDRFSGSGSGTDFTLTISRLEPEDFAVYYCQQYDNWPYTFGQGTKLEIK .
Response: 0.089
